target: WDR5 (Homo sapiens (Human)); assay: TR-FRET binding assay (displacement of 10mer-Thr-FAM probe from WDR5); settings: read-out: Ki for Inhibition of WDR5 by TR-FRET assay; TR-FRET, 10mer-Thr-FAM probe, WDR5-His tag 2 nM, pH 7.0
Exercise: for every item that follows, state its recorded Ki.

compound | Ki
COc1cc(-c2cc(Cn3ccn(C)c3=N)cc(C(=O)NC(c3cc(C)ccn3)C3CC3)c2)ccn1 (stereo not shown) [Example 14] | 6 nM

Hi! Can you tell me Ki for each of these compounds?
1. Cn1ccn(Cc2cc(C(=O)NC3(c4cccc(Br)c4)CCC3)c(F)c(-c3ccc(F)cc3C(F)(F)F)c2)c1=N [Example 186]
2. Cc1cc([C@@H](NC(=O)c2cc(Cn3ccn(C)c3=N)cc(-c3cc(C(F)(F)F)nn3C)c2)C2CC2)ccc1F [Example 196]
3. Cc1cc([C@@H](NC(=O)c2cc(CN3CCOC3=N)cc(-c3ccc(F)cc3C(F)F)c2)C2CC2)ccc1F [Example 272]

Output:
< 0.1 nM
< 0.1 nM
< 0.1 nM

====

target: WDR5 (Homo sapiens (Human)); assay: TR-FRET binding assay (displacement of 10mer-Thr-FAM probe from WDR5); conditions: read-out: Ki for Inhibition of WDR5 by TR-FRET assay; TR-FRET, 10mer-Thr-FAM probe, WDR5-His tag 2 nM, pH 7.0
Assign pKi to each entry below.
One number for each entry, as −log10 of the molar value.

mol smiles | pKi
Cn1cc(-c2cc(CN3CCCC3=N)cc(C(=O)N[C@H](c3ccc(F)c(F)c3)C3CC3)c2)c(C(F)(F)F)n1 | 9.46

Let us move to another entry and its pKi.
Input: Observed pKi on WDR5 (Homo sapiens (Human)) for `Cn1ccn(Cc2cc(C(=O)N[C@H](c3ccc(F)cn3)C3CC3)cc(-c3cccnc3C(F)(F)F)c2)c1=N` , please.
Output: 7.64

====

system: MV4:11 human cancer cell lines; experiment: Anti-proliferative activity, CellTiter-Glo viability assay, 7 day protocol; format: cell-based; conditions: Homo sapiens, MV4-11, 168 h, MV4:11 cells, 7 day incubation, read-out: GI50 on cellular proliferation of MV4:11 human cancer cell lines
quantity name: GI50 (nM)
Answers are plain numbers, in nM.

State recorded GI50 for all listed molecules.
1. CCn1cc(-c2cc(Cn3ccn(C)c3=N)cc(C(=O)NCc3ccc(=O)n(C)c3)c2)c(C(F)(F)F)n1
2. Cc1ccnc([C@@H](NC(=O)c2cc(Cn3ccn(C)c3=N)cc(-c3cccnc3C(F)(F)F)c2F)C2CC2)c1

Output:
710
610

// for each molecule below, give its GI50
1. Cn1ccn(Cc2cc(C(=O)NC(CC(=O)O)c3ccc(Cl)c(Cl)c3)cc(-c3ccc(F)cc3C(F)(F)F)c2)c1=N (stereo not shown)
2. COc1cc(CNC(=O)c2cc(Cn3ccsc3=N)cc(-c3ccc(F)cc3C)c2)cc(OC)c1
3. N=C1OCCN1Cc1cc(C(=O)N[C@H](c2ccc(Cl)c(Cl)c2)C2CC2)cc(-c2ncc(F)cc2C(F)(F)F)c1
4. Cn1nccc1-c1cc(Cn2ccn(C)c2=N)cc(C(=O)NCc2ccc(Cl)c(Cl)c2)c1

Output:
2100
910
270
790

====

molecular target: WDR5 (Homo sapiens (Human), UniProt P61964); assay: TR-FRET binding assay (displacement of 10mer-Thr-FAM probe from WDR5); conditions: read-out: Ki for Inhibition of WDR5 by TR-FRET assay; TR-FRET, 10mer-Thr-FAM probe, WDR5-His tag 2 nM, pH 7.0
quantity name: Ki (nM)
Answers are plain numbers, in nM.

Answered cases to consult:
compound | Ki, nM
Cc1cc([C@@H](NC(=O)c2cc(Cn3ccn(C)c3=N)cc(-c3cccnc3C(F)(F)F)n2)C2CC2)ccc1F [Example 119] | 0.16
Cc1cc(CNC(=O)c2cc(Cn3ccn(C)c3=N)cc(-c3ccncc3C)c2)ccc1Cl [Example 16] | 0.49

Input: Reported Ki, compound Cc1ncccc1-c1cc(Cn2ccn(C)c2=N)cc(C(=O)NCc2cncnc2)c1 [Example 40] : ____
Output: 133
